- Test system: cancer cell lines from the cancer cell line encyclopedia (CCLE)
- procedure_summary: Cell line profiling (CLiP) proliferation experiment
- Type: cell-based
- study_conditions: Homo sapiens, Rec1, REC-1 cells; read-out: Crossing Point
measured_endpoint: IC50 (µM)
State the answer as a number, implicitly in µM.

Lab book: IC50 of CC(C)[C@@]12C[C@@H](O)[C@@](C)(O1)[C@@H]1CC[C@@H](C)[C@H]1[C@@H]2OC(=O)/C=C/c1ccccc1 noted as 18.4

###

- System: cancer cell lines from the cancer cell line encyclopedia (CCLE)
- procedure_summary: Cell line profiling (CLiP) proliferation experiment
- Type: cell-based
- study_conditions: Homo sapiens, KCL-22, KCL-22; read-out: Crossing Point
measured_endpoint: IC50
Please give the number followed by its unit.

Lab book: IC50 of CC(C)[C@@]12C[C@@H](O)[C@@](C)(O1)[C@@H]1CC[C@@H](C)[C@H]1[C@@H]2OC(=O)/C=C/c1ccccc1 [Englerin B] noted as 13.5 µM

###

- System: cancer cell lines from the cancer cell line encyclopedia (CCLE)
- procedure_summary: Cell line profiling (CLiP) proliferation experiment
- Format: cell-based
- study_conditions: Homo sapiens, NCI-H1975, NCI-H1975, lung, adenocarcinoma; read-out: Crossing Point
pIC50: −log10 of the molar value.
measured_endpoint: pIC50

Lab book: pIC50 of CC(C)[C@@]12C[C@@H](O)[C@@](C)(O1)[C@@H]1CC[C@@H](C)[C@H]1[C@@H]2OC(=O)/C=C/c1ccccc1 [Englerin B] noted as < 4.52

###

- Tested on: cancer cell lines from the cancer cell line encyclopedia (CCLE)
- procedure_summary: Cell line profiling (CLiP) proliferation experiment
- Format: cell-based
- study_conditions: SW1271, SW 1271 (lung, small_cell_carcinoma); read-out: Crossing Point
measured_endpoint: IC50

Lab book: IC50 of CC(C)[C@@]12C[C@@H](O)[C@@](C)(O1)[C@@H]1CC[C@@H](C)[C@H]1[C@@H]2OC(=O)/C=C/c1ccccc1 noted as > 30 µM

###

- Tested on: cancer cell lines from the cancer cell line encyclopedia (CCLE)
- procedure_summary: Cell line profiling (CLiP) proliferation experiment
- Format: cell-based
- study_conditions: Homo sapiens, KU812, KU812 cells; read-out: Inflection Point
measured_endpoint: EC50 (µM)
State the answer as a number, implicitly in µM.

Tested on cancer cell lines from the cancer cell line encyclopedia (CCLE), the item CC(C)[C@@]12C[C@@H](O)[C@@](C)(O1)[C@@H]1CC[C@@H](C)[C@H]1[C@@H]2OC(=O)/C=C/c1ccccc1 showed EC50 equal to 13.2

###

- Test system: cancer cell lines from the cancer cell line encyclopedia (CCLE)
- procedure_summary: Cell line profiling (CLiP) proliferation experiment
- Assay type: cell-based
- study_conditions: Homo sapiens, C32, C32 cells; read-out: Crossing Point
pIC50: −log10 of the molar value.
measured_endpoint: pIC50

Lab book: pIC50 of CC(C)[C@@]12C[C@@H](O)[C@@](C)(O1)[C@@H]1CC[C@@H](C)[C@H]1[C@@H]2OC(=O)/C=C/c1ccccc1 [Englerin B] noted as < 4.52

###

- Test system: cancer cell lines from the cancer cell line encyclopedia (CCLE)
- procedure_summary: Cell line profiling (CLiP) proliferation experiment
- Format: cell-based
- study_conditions: cell line BICR 16; upper_aerodigestive_tract; squamous_cell_carcinoma; read-out: Crossing Point
measured_endpoint: IC50 (µM)
State the answer as a number, implicitly in µM.

Lab book: IC50 of CC(C)[C@@]12C[C@@H](O)[C@@](C)(O1)[C@@H]1CC[C@@H](C)[C@H]1[C@@H]2OC(=O)/C=C/c1ccccc1 noted as 9.26
